B1: tRNA (parent)
chain: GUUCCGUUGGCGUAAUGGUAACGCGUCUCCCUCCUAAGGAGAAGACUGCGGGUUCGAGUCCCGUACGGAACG

# Variants of: B1
# assay-method-text: yeast fitness relative to wild type (ratio to wild type); higher = fitter; tRNA-Arg(CCU), competitive growth, 37 C, YPD
Variants at the floor of the assay were thinned out.
measure-name: yeast fitness
Respond with the number and no other words.

- monomer-sequence: "GUUCCGUUGACGUAAUGGUAACGCGUCUCUCUCCUAAGGAGAAGAAUGCGGGUUCGAGUCCCGUACGGAACG [G10A C30U C46A]"
  yeast fitness: 0.695
- monomer-sequence: "GUUCCGUUGGCGAAAUGGUAACGCGUCCCCCUCCUAAGGAGAAGACUGCGGGUUUGAGUCCCGUACGGAACG [U13A U28C C55U]"
  yeast fitness: 0.741
- monomer-sequence: "GUUCCGUUGGCGUAAGGGUAACGCGUCUCCCUCCUUAGGAGAAGACUGCGGGUUCGAGUCCCGUACGGAACG [U16G A36U]"
  yeast fitness: 0.589
- monomer-sequence: "GUUCCGUUGGCGUAAUGGUAACGAGUCUCCCUCCUAGGGAGAAGACUGCGGGUUCGAGUCCCGUACGGAACG [C24A A37G]"
  yeast fitness: 0.513
- monomer-sequence: "GUUCCGUUGGCAUAAUGGUAACGCGUCUCCCUCCUAAGGAGAAGACUGCGGGUUCGAGUCCCGUACUGAACG [G12A G67U]"
  yeast fitness: 0.797
- monomer-sequence: "GUUCCGUUCGCAUAAUGGUACCGCGACUCCCUCCUAAGCAGAAGACUGCGGGUUCGAGUCCCGUACGGAACG [G9C G12A A21C U26A G39C]"
  yeast fitness: 0.632
- monomer-sequence: "GUUCCGUUGGCGUAAUGGUAACGCGUCUCCCUCCUCAGGAGAAGACUGCAGGUUCGAGUCCCGUACGGAACG [A36C G50A]"
  yeast fitness: 0.608
- monomer-sequence: "GUUCCGUUGGCGUAAUGGUAACGAGUCUCCCUCCUAAGGAGAACACUGAGGGUUCGAGUUCCGUACGGCACG [C24A G44C C49A C60U A69C]"
  yeast fitness: 0.599

Consider now this further variant.
# get_value(readout='yeast fitness', item= GUUCCGUUGGCGUAAUGGUAACGCGUCUCCCUCCUAAGGAGAAGACUGUGGGUUCGAGUCCCGUACGAAACG [C49U G68A] )
0.85
